These measurements were taken from ChEMBL document CHEMBL4414598.

- EXPERIMENTAL_SYSTEM: Adenosine receptor A3 (Homo sapiens) (UniProt P0DMS8)
- Sequence (P0DMS8 whole entry): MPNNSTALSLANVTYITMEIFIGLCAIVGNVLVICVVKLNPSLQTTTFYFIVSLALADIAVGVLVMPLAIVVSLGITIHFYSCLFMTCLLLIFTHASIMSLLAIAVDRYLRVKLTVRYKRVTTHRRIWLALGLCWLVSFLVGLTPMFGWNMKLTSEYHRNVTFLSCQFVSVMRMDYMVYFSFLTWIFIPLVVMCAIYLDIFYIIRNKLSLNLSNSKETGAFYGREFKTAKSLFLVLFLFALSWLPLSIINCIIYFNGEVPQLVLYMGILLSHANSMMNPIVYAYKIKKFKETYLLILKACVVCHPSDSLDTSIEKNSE
- PROCEDURE_TEXT: Displacement of [3H]NECA from human A3 receptor expressed in human HeLa cell membranes at 1 uM incubated for 180 mins by radioligand binding competition assay relative to control
The threshold is inclusive: inhibition of exactly 5% counts as TRUE; values below receive FALSE.

Take a look at these entries with their results.
[[record]]
compound = "CC1=C(C(=O)OCC(F)(F)F)C(c2ccsc2)NC(=O)N1 (racemic)"
discrete_label = "FALSE"

[[record]]
compound = "CC1=C(C(=O)OCC(F)(F)F)[C@H](c2ccco2)n2c(nc3ccccc32)N1"
discrete_label = "TRUE"

[[record]]
compound = "CC1=C(C(=O)O[C@@H](C)C(F)(F)F)C(c2ccco2)n2c(nc3ccccc32)N1 (mixture of isomers)"
discrete_label = "TRUE"


# input Dear colleague, could you confirm whether CCOC(=O)C1=C(C)Nc2nc3ccccc3n2C1c1ccoc1 (centres undefined) has inhibition at or above 5%?
# output FALSE

# input Next compound: CCOC(=O)C1=C(C)Nc2nc3ccccc3n2C1c1cccs1 (centres undefined)
# output FALSE

====

Let's look at some compounds and their measured inhibition.
- EXPERIMENTAL_SYSTEM: Adenosine receptor A3 (Homo sapiens) (UniProt P0DMS8)
- PROCEDURE_TEXT: Displacement of [3H]NECA from human A3 receptor expressed in human HeLa cell membranes at 1 uM incubated for 180 mins by radioligand binding competition assay relative to control
Entry rule: numbers only, all in %.

[[record]]
compound = "CCOC(=O)C1=C(C)Nc2nc3ccccc3n2C1c1ccsc1 (stereo not drawn)"
value_reported = 2


# input Would you mind telling me what inhibition value was observed for CC1=C(C(=O)OC(C)C(F)(F)F)C(c2ccsc2)NC(=O)N1 (stereo in doubt; 14l-D1) ?
# output 2

# input Next compound: CC1=C(C(=O)OCC(F)(F)F)C(c2ccsc2)n2c(nc3ccccc32)N1 (racemic)
# output 2

====

- EXPERIMENTAL_SYSTEM: Adenosine receptor A1 (Homo sapiens)
- PROCEDURE_TEXT: Displacement of [3H]DPCPX from human recombinant A1 receptor expressed in CHOA1 cell membranes at 1 uM incubated for 60 mins by radioligand binding competition assay relative to control
RESULT_TYPE: inhibition (%)
Entry rule: numbers only, all in %.

Here is how some compounds turned out for inhibition.
[[record]]
compound = "CC(C)OC(=O)C1=C(C(F)(F)F)NC(=O)NC1c1ccoc1 (racemic)"
experimental_system = "Adenosine receptor A1 (Homo sapiens)"
value_reported = 27

[[record]]
compound = "CCOC(=O)C1=C(C)Nc2nc3ccccc3n2C1c1ccoc1 (configuration not stated)"
experimental_system = "Adenosine receptor A1 (Homo sapiens)"
value_reported = 7

[[record]]
compound = "CC1=C(C(=O)OC(C)C(F)(F)F)C(c2ccsc2)n2c(nc3ccccc32)N1 (racemic)"
experimental_system = "Adenosine receptor A1 (Homo sapiens)"
value_reported = 2

[[record]]
compound = "CCOC(=O)C1=C(C(F)(F)F)Nc2nc3ccccc3n2[C@H]1c1ccoc1"
experimental_system = "Adenosine receptor A1 (Homo sapiens)"
value_reported = 10

[[record]]
compound = "CC1=C(C(=O)OC(C)C(F)(F)F)C(c2cccs2)NC(=O)N1 (stereo in doubt; 14k-D1)"
experimental_system = "Adenosine receptor A1 (Homo sapiens)"
value_reported = 12


# input Could you share what inhibition was measured for CC1=C(C(=O)OCC(F)(F)F)C(c2cccs2)NC(=O)N1 (racemic) , tested on Adenosine receptor A1 (Homo sapiens)?
# output 3

# input Next compound: `CC1=C(C(=O)O[C@@H](C)C(F)(F)F)[C@@H](c2ccco2)n2c(nc3ccccc32)N1`
# output 22

# input Next compound: CC(C)OC(=O)C1=C(C(F)(F)F)Nc2nc3ccccc3n2C1c1ccco1 (racemic)
# output 3
